Please go through the items and note down their MIC.
Test system: A. fumigatus
Assay type: cell-based, A. fumigatus (KCTC 6145)
measurement.context: 36 h, pH 7.2
No end group written: not given here.
Give bare numbers, in µM.

// worked examples, MIC included
Incoming: Name the value of MIC reported for GLNALKKVFQGIHEAIKLINNHVQ-NH2 [Pseudin-2] when tested on A. fumigatus.
Outgoing: 64

Incoming: Name the value of MIC reported for GLNALKKVFQGAHEAIKLANNHVQ-NH2 [P2-LZ3] when tested on A. fumigatus.
Outgoing: 64

Incoming: Name the value of MIC reported for GANALKKVAQGIHEAIKLINNHVQ-NH2 [P2-LZ2] when tested on A. fumigatus.
Outgoing: 24

Incoming: Name the value of MIC reported for GLNAAKKVFQGAHEAIKLINNHVQ-NH2 [P2-LZ1] when tested on A. fumigatus.
Outgoing: 64

Below is a list of substances. For each, state its recorded MIC.
1. GLNALKKVKQGKHEAIKLINNHVQ-NH2 [P2-LZ5]
2. GLNALKKVAQGIHEAAKLINNHVQ-NH2 [P2-LZ4]

Outgoing:
16
32
